measurement_notes: protease stability score; higher = more stable; yeast display proteolysis, trypsin and chymotrypsin;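 note: log10 excess protease needed over predicted unfolded state with 0 meaning unfolded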
Rule: protease stability score of 0.8 or more gives y; anything lower gives n.

Illustrative cases are given below, each with its answer.
>>> category_label("DDKQLDERVKEIQEVIRDNDPDSMKHLMDPNARMFVGDKEFHGRDEIVRHLKDLWHRVDHFHIKDFRASGNRAVVIAVFHVNGVTAHFKIFVVFQNGRIKQLRIKWRNEDEERRVRS")
"n"
>>> category_label("DDEKKARTLLKQLKEAFENNDEDRARQLMDKDVRLDIGDKTYHGREEAAEAWHRLVETVDHMDMKVRHIENRNGHMVVNADMVLHRDGRQKRLKVTFTARDDNGHAVLVHVSFD")
"y"
>>> category_label("DDEESEKFAEDAMRILQTGDEEKFVRQADPNARVVYGEKTVHGREEAKKEVKTFRDRVDKIDVHHVEVTNGKAFLDATFRFDGRDRHYVVEIVRHNGRIKQMVMKKK")
"n"
>>> category_label("DEKKAEEVATRVLEYIRDGNADDVKKLGKEGGQVQLGDTQLNGVDQLYKYVQDFHKQGIHVEYKEHEAKGDTVTFHTTARRGDAQIEFEVHYVVKGDVVERMEVRQDRKQVKEFKDS")
"n"

Query :: Given the entry DEENMEVLEKVLDAMRTGDKKKVRDNLDKDARIEIGDHVLNGREEFAKWVVQIKKEIKVQINIQSVDVSNGRVRVHAQVEFRVNGQPQQYTIHIVAEIHNGHIKTLRMSFDDDQQRKFES , answer whether its protease stability score meets or surpasses 0.8.
Result :: y
